Attribution: patent US20240139221A1

Reported solubility at 2 h values for a set of compounds
# ASSAY_SUMMARY: Solubility in buffers, water and simulated vaginal fluid at 37° C.
# STATED_CONDITIONS: 37 °C, water, thermodynamic from solid

CCOC(=O)[C@H](C)NP(=O)(COCCn1cnc2c(OC)nc(N)nc21)OCc1ccccc1.O=C(O)/C=C/C(=O)O (mixture of isomers) [Compound I monofumarate]; > 2000 µg/mL

Turning now to a further compound:
Please give the measured solubility at 2 h for this compound: CCOC(=O)[C@H](C)N[P@@](=O)(COCCn1cnc2c(OC)nc(N)nc21)OCc1ccccc1.O=C(O)/C=C/C(=O)O [Compound II] > 2000 µg/mL

* * *

# ASSAY_SUMMARY: Approximate solubility in solvents at 25° C. and 50° C., visual observation
# Type: physicochemical
# STATED_CONDITIONS: 25 °C, organic solvent or mixture, thermodynamic from solid, Table 14, Heptanes, 25° C., read-out: Solubility (mg/mL) 25° C.
MEASURED_ENDPOINT: solubility

Please give the measured solubility for this compound: CCOC(=O)[C@H](C)NP(=O)(COCCn1cnc2c(OC)nc(N)nc21)OCc1ccccc1.O=C(O)/C=C/C(=O)O (mixture of isomers) [Compound I monofumarate] < 2 mg/mL

* * *

# ASSAY_SUMMARY: Solubility in buffers, water and simulated vaginal fluid at 37° C.
# STATED_CONDITIONS: phosphate buffer, 37 °C, pH 6.8, aqueous buffer, thermodynamic from solid
MEASURED_ENDPOINT: solubility at 0.5 h

Please give the measured solubility at 0.5 h for this compound: CCOC(=O)[C@H](C)NP(=O)(COCCn1cnc2c(OC)nc(N)nc21)OCc1ccccc1 (stereo partly shown) > 2000 µg/mL

* * *

# ASSAY_SUMMARY: Solubility in buffers, water and simulated vaginal fluid at 37° C.
# STATED_CONDITIONS: acetate buffer, 37 °C, pH 4.5, aqueous buffer, thermodynamic from solid
MEASURED_ENDPOINT: solubility at 2 h

Please give the measured solubility at 2 h for this compound: CCOC(=O)[C@H](C)NP(=O)(COCCn1cnc2c(OC)nc(N)nc21)OCc1ccccc1 (stereo partly shown) > 2000 µg/mL

* * *

# ASSAY_SUMMARY: Approximate solubility in solvents at 25° C. and 50° C., visual observation
# Format: physicochemical
# STATED_CONDITIONS: 25 °C, organic solvent or mixture, thermodynamic from solid, Table 14, DCM, 25° C., read-out: Solubility (mg/mL) 25° C.
MEASURED_ENDPOINT: solubility

Please give the measured solubility for this compound: CCOC(=O)[C@H](C)NP(=O)(COCCn1cnc2c(OC)nc(N)nc21)OCc1ccccc1.O=C(O)/C=C/C(=O)O (mixture of isomers) [Compound I monofumarate] < 2 mg/mL

* * *

# ASSAY_SUMMARY: Approximate solubility in solvents at 25° C. and 50° C., visual observation
# Assay type: physicochemical
# STATED_CONDITIONS: 25 °C, organic solvent or mixture, thermodynamic from solid, Table 14, IPAc, 25° C., read-out: Solubility (mg/mL) 25° C.
# Method: The maximum volume of each solvent added was 1 mL. Approximate solubility was determined by visual observation. Maximum volume of each solvent added was 1 mL. Approximate solubility was determined by visual observation.
MEASURED_ENDPOINT: solubility

Please give the measured solubility for this compound: CCOC(=O)[C@H](C)NP(=O)(COCCn1cnc2c(OC)nc(N)nc21)OCc1ccccc1.O=C(O)/C=C/C(=O)O (mixture of isomers) [Compound I monofumarate] < 2 mg/mL
